# System tested: mTOR (Homo sapiens, UniProt P42345)
# Assay: Lanthascreen kinase binding assay, assay G
# Run parameters: read-out: Assay G mTOR IC50
pIC50: −log10 of the molar value.
Readout name: pIC50

// known answers, use as guide
| Input smiles | pIC50 |
| --- | --- |
| Cc1ccc(S(=O)(=O)NCCC(C)(C)O)cc1-c1cnc(N)c(-c2cccnc2F)n1 | 5.31 |
| Cc1ccc(S(=O)(=O)NCCC(C)(C)O)cc1-c1cnc(N)c(-c2ccc(OC3CCOCC3)nc2)n1 | 5.04 |

A: Cc1ccc(S(=O)(=O)N[C@H]2CC[C@H](O)CC2)cc1-c1cnc(N)c(-c2ccncc2)n1
B: Cc1ccc(S(=O)(=O)NCC(=O)C(C)(C)C)cc1-c1cnc(N)c(-n2cncn2)n1
Q. Compare the recorded pIC50 of A and B ; state which is larger. Reply briefly: the label of your chosen item.
A. B

====

# Test system: IL-8-induced neutrophil shape change in human whole blood
# Assay: Whole blood neutrophil shape change assay (L)
# Assay type: cell-based
# Run parameters: Homo sapiens, Neutrophil, IL-8, human whole blood, read-out: Assay L WBSC IC50
pIC50: −log10 of the molar value.
Readout name: pIC50

| Input smiles | pIC50 |
| --- | --- |
| Cc1ccc(S(=O)(=O)NCC2(O)CCOCC2)cc1-c1cnc(N)c(-n2cncn2)n1 | 6.18 |

A: CCc1nnc(-c2nc(-c3cc(S(=O)(=O)N[C@H]4CC[C@H](O)CC4)ccc3C)cnc2N)o1
B: Cc1cc(F)c(S(=O)(=O)NCC(C)(C)O)cc1-c1cnc(N)c(-n2cncn2)n1
Q. Compare the recorded pIC50 of A and B ; state which is larger. Reply briefly: the label of your chosen item.
A. B
(B: 6.01, A: 5.32)

====

# System tested: PI 4-kinase beta (Homo sapiens)
# Sequence (Q9UBF8 whole entry): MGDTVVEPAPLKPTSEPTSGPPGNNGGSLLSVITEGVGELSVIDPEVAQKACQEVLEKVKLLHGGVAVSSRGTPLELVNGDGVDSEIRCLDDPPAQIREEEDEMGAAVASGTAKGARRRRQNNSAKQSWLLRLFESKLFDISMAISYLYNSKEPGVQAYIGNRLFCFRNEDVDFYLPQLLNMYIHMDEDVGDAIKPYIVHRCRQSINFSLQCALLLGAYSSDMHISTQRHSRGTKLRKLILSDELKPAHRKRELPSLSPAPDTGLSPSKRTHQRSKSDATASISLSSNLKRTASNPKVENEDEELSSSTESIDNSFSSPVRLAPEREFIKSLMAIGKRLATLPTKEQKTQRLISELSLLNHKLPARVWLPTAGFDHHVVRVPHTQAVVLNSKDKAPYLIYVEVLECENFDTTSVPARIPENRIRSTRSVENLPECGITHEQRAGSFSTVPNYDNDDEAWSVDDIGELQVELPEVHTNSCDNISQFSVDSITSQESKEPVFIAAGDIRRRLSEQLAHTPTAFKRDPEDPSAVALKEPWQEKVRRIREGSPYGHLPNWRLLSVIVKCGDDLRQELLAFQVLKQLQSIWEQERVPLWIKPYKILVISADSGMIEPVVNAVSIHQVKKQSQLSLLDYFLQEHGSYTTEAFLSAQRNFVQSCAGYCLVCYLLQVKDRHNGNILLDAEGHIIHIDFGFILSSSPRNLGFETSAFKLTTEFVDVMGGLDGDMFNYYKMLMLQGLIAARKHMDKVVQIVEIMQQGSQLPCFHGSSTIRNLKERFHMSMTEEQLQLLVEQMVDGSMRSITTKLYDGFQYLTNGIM
# Assay: Kinase Glo Luminescent Kinase Assay (Kglo), assay D
# Type: biochemical
# Run parameters: read-out: Assay D PI4Kβ IC50
Readout name: IC50

GET /value?item= Cc1ccc(S(=O)(=O)NCC2CCN(C)C2)cc1-c1cnc(N)c(-n2cncn2)n1 (centres unmarked) [Example 127.18] &field=IC50 returns > 10 µM

====

Reported IC50 values are given for each entry in this list.
# System tested: mTOR (Homo sapiens, UniProt P42345)
# Assay: Lanthascreen kinase binding assay, assay G
# Run parameters: read-out: Assay G mTOR IC50

// known answers, use as guide
| Molecule | Readout name | Value observed |
| --- | --- | --- |
| Cc1ccc(S(=O)(=O)N2CCC(F)CC2)cc1-c1cnc(N)c(-n2cncn2)n1 | IC50 | > 10 µM |
| Cc1ccc(S(=O)(=O)NCC(C)(F)F)cc1-c1cnc(N)c(-n2cncn2)n1 | IC50 | 8.8 µM |
| CC(C)(O)CCNS(=O)(=O)c1ccc(Cl)c(-c2cnc(N)c(-n3cncn3)n2)c1 | IC50 | 8.4 µM |
| COC(C)(C)CNS(=O)(=O)c1ccc(C)c(-c2cnc(N)c(-c3ccnc(C)c3)n2)c1 | IC50 | > 9.1 µM |
| Cc1ccc(S(=O)(=O)NCCC(C)(C)O)cc1-c1cnc(N)c(-c2ccnn2C)n1 | IC50 | 5.47 µM |
| Cc1ccc(S(=O)(=O)N[C@H]2C[C@H](O)C2)cc1-c1cnc(N)c(-n2cncn2)n1 [Example 71a] | IC50 | > 10 µM |
| Cc1ccc(S(=O)(=O)NCC(C)(C)CO)cc1-c1cnc(N)c(-c2cc(C3CC3)no2)n1 | IC50 | 4.95 µM |
| Cc1cc(-c2nc(-c3cc(S(=O)(=O)NCC4CCN(C)C4)ccc3C)cnc2N)ccn1 (stereo not drawn) | IC50 | > 9.1 µM |
| Cc1nc(C)n(-c2nc(-c3cc(S(=O)(=O)NCC(C)(C)O)ccc3C)cnc2N)n1 | IC50 | > 10 µM |
| Cc1ccc(S(=O)(=O)NCC(C)(C)O)cc1-c1cnc(N)c(-c2cn(C)nc2C)n1 | IC50 | > 10 µM |

# next molecule below
GET /value?item= `Cc1cc(-c2nc(-c3cc(S(=O)(=O)N[C@@H]4CCC[C@H]4N)ccc3C)cnc2N)ccn1` &field=IC50 returns > 9.1 µM
